Measured IC50, listed per entry.
biological target: HLA-A*6802 (human); test: inhibition of 125I-labelled probe peptide binding to purified HLA, gel filtration; conditions: remark: other sources report otherwise
TEST_READOUT: IC50

# BINDER, VALUE_MEASURED
measured = [
    ("SLHLLSNDMCV (modifications not checked) [Peptide 1418.66 (HuK2.175.V11) …]", "2160 nM"),
    ("LMLLRLSEPA (modifications not checked) [Peptide 63.0014 (HuK2.121; PSA.117) …]", "5000 nM"),
    ("SLQCVSLHL (modifications not checked) [Peptide 60.0191 (HuK2.170) …]", "2580 nM"),
    ("SLQCVSLHLL (modifications not checked) [Peptide 1419.66 (HuK2.170) …]", "5000 nM"),
    ("HLLSNDMCARV (modifications not checked) [Peptide 1418.67 (HuK2.177.V11) …]", "860 nM"),
]

Origin of the recorded values: patent US20070020327A1
